FYI, the data here is from the Immune Epitope Database (IEDB).

target-desc: HLA-B*48:01
assay-protocol: IEDB peptide-MHC binding, purified MHC/direct/fluorescence; filed as Kd, often an IC50 or EC50 that approximates it; bounds were set here for any values at or beyond the usual limits of such assays
experimental-context: source organism: Influenza A virus (A/chicken/Thailand/LV1NF/2004(H5N1))
pKd: −log10 of the molar value.
recorded-metric: pKd

> print(dat)
       chain  recorded.metric  result
1  EMIWDPNGW              pKd  ≤ 4.70

====

target-desc: HLA-B*57:01
assay-protocol: IEDB peptide-MHC binding, purified MHC/competitive/fluorescence; filed as Kd, often an IC50 or EC50 that approximates it; bounds were set here for any values at or beyond the usual limits of such assays
experimental-context: source organism: Vibrio parahaemolyticus AQ3810
recorded-metric: Kd (nM)

> print(dat)
       chain  recorded.metric  value.unit  recorded.number
1  SSRGYSAIW               Kd          nM               42
